# System: A498 renal
# METHOD: NCI tumour cell line growth inhibition, 48 h
Overview of recorded TGI for various compounds
MEASUREMENT KIND: TGI

1) C=CCc1cccc(/C=N\N=C(/N)NO)c1O
> 51.6 µM
2) O=S(=O)(OI(O)CC(F)(F)F)C(F)(F)F
> 100 µM
3) COC(=O)C(C(=O)C(=O)Nc1ccc(OC)cc1[N+](=O)[O-])c1nc2cc(C)c(C)cc2[nH]c1=O (configuration not stated)
> 100 µM
4) C#CCN(N=O)C(=O)NCCCC(NC(C)=O)C(=O)NCc1ccccc1 (configuration not stated)
> 100 µM
5) COc1cc2c(c(OC(C)=O)c1OC(C)=O)-c1ccc(SC)c(=O)cc1C(NC(C)=O)CC2 (configuration not stated)
56.7 µM
6) Oc1ccc(-c2cn3cc(C(F)(F)F)ccc3n2)cc1
> 100 µM
7) O=C1/C(=C/c2cccs2)NC(=S)N1CN1CCCC(CO)C1 (configuration not stated)
> 100 µM
8) CC(C)(C)NC(=O)C12C3C4C1C1C2C3C41C(=O)NC(C)(C)C (configuration not stated)
> 100 µM
9) COc1cc2c(cc1OC)c1c(OC)c(OC)cc3c1c1c2sc(=S)n1CC3
> 100 µM
10) Nc1nc(N)c(N=Nc2ccc(C(=O)O)c(O)c2)c(N)n1
> 100 µM
11) CN(C)C(=O)C1CCN(Cc2c[nH]c3ccccc23)CC1
> 100 µM
12) COc1cc(CC(C(=O)O)C(=O)O)c(OC)cc1CC(C(=O)O)C(=O)O
> 100 µM
13) C=C1C(=O)OC2C1C(OC(=O)/C(C)=C\C)CC1(CO1)C1C(O)C=C(C)C21O (configuration not stated)
17.7 µM
14) Nc1c(N2CCCCC2)c(=O)nc2[nH]/c(=C\c3ccccc3)c(=O)n12
> 100 µM
15) Cc1c(C2Cc3ccccc3N2)c2ccccc2n1C (configuration not stated)
> 100 µM
16) COCOCC[C@@H]1CC=CC(NC(=O)OCc2ccccc2)C1/C=C/C(=O)CCC1OCCO1 (some centres not stated)
> 100 µM
17) N#Cc1c(N)nc(N2CCSCC2)c(C#N)c1-c1ccc(O)cc1
29.8 µM
18) O=C1C(=O)N(c2cccc(C(F)(F)F)c2)C(=O)C(=O)C1c1nc2ccccc2s1
> 100 µM
19) CN(C)Cc1cc(N=Nc2ccc(Cl)cc2)ccc1O
31.8 µM
20) CCOC(=O)c1cc(-c2ccc(OC)c(OC)c2)[nH]c1N/N=C/c1c(Cl)cccc1Cl
7.77 µM
21) O=C(O)C12C3CCC(O3)C1(C(=O)O)C1CCC2O1 (configuration not stated)
> 100 µM
22) NC(=O)C(Nc1ccc(Cl)cc1)c1cc2cc(Br)ccc2nc1Cl (configuration not stated)
> 50 µM

====

Overview of recorded TGI for various compounds
# Test system: IGROV1 ovarian
# METHOD: NCI tumour cell line growth inhibition, 48 h
MEASUREMENT KIND: TGI

1. CCCOC1OC(CS(=O)(=O)O)C(O)C(O)C1O (stereo unspecified)
> 100 µM
2. COc1cc(/C=C\c2ccc(OC(C)=O)cc2)cc(OC)c1OC
> 100 µM
3. Cc1c(-c2ccccc2)c(C#N)c2nnn(-c3cccc(Cl)c3)c(=O)n12
> 100 µM
4. N#Cc1c(N)c(C#N)c2c(c1-c1ccc(Cl)cc1)COc1ccccc1-2
66.5 µM
5. COc1cc(C23OCC(Cc4cc5c(cc42)OCO5)C3CO)cc(OC)c1OC (stereo unspecified)
> 100 µM
6. O=c1nc2sc3ccc4ccccc4c3n2[nH]c1=O
> 100 µM
7. COc1ccc2c(c1)C(N)=C(Cc1ccncc1)C2=O
> 100 µM
8. O=S(=O)(Nc1ccc2ccccc2c1)c1ccc(-c2cnc(C3CC3)o2)cc1
14 µM
9. COc1ccc(/C=c2/sc3n(c2=O)NC(c2ccc(Cl)cc2)NN=3)cc1 (stereo unspecified)
> 100 µM
10. C=C1C(=O)OC2C1C(OC(=O)/C(C)=C\C)CC1(CO1)C1C(O)C=C(C)C21O (stereo unspecified)
29.7 µM
11. Cc1ccc(/C=C(\C#N)c2ccccc2)cc1
> 100 µM
12. CN(C)CCCNC(=O)c1cc(NC(=O)c2cc(NC(=O)[C@@H]3C[C@H]3C(=O)Nc3cc(C(=O)Nc4cc(C(=O)NCCCN(C)C)n(C)c4)n(C)c3)cn2C)cn1C
> 100 µM
13. COc1ccc2c(c1)N(CCO)C1=C(C(=O)OC1)C2c1ccccc1 (stereo unspecified)
> 50 µM
14. O=[N+]([O-])c1nccn1CCCNCCCn1ccnc1[N+](=O)[O-]
> 100 µM
15. CN(C)CCNC(=O)c1cccc2ncc(-c3ccccc3)nc12
> 74.6 µM
16. COc1ccc(Nc2nc3ccccc3nc2C(=O)O)cc1OC
> 100 µM
17. COc1ccc(CNC(=O)[C@H](Cc2ccc(O)cn2)NC(C)=O)cc1
> 100 µM
18. CCN(CC)CC(C)(C)C(=O)/C=C/c1ccc(/C=C/C(=O)C(C)(C)CN(CC)CC)cc1
7.04 µM
19. COc1ccc2c(c1)C(=O)c1c-2n(CCCN)c(=O)c2cc(OC)c(OC)cc12
0.976 µM
20. COC(=O)C(=O)C(C(=O)C=C(C)C)C(=O)C(=O)Nc1nc2ccc([N+](=O)[O-])cc2s1 (stereo unspecified)
66.4 µM
21. CC1CC(C)C2=NOS3=C2C1=NO3 (stereo unspecified)
> 100 µM
